All figures here come from ChEMBL document CHEMBL3044985.

Test system: Mycobacterium tuberculosis
protocol details: Antitubercular activity against multidrug-resistant Mycobacterium tuberculosis by NCCLS agar dilution method
Format: functional
I'd appreciate it if you marked entries Fulfilled when MIC is lower than 3 µM and Not fulfilled when it is not.

Worked set:
>>> print(df.to_string())
                         structure_notation  category_label
0  Oc1ccccc1/C=N\NC(=S)N(Cc1ccccc1)Cc1ccccc1   Not fulfilled
1        C=CCN(CC=C)C(=S)N/N=C\c1ccc(Cl)cc1       Fulfilled
2  C=CCN(CC=C)C(=S)N/N=C\c1ccccc1[N+](=O)[O-]       Fulfilled
3      C=CCN(CC=C)C(=S)N/N=C(/C)c1ccc(F)cc1   Not fulfilled

Query :: Please state whether MIC is below 3 µM for `C=CCN(CC=C)C(=S)N/N=C\c1ccc([N+](=O)[O-])cc1`
Result :: Fulfilled

Query :: Please state whether MIC is below 3 µM for `Cc1ccccc1/C=N\NC(=S)N(Cc1ccccc1)Cc1ccccc1`
Result :: Not fulfilled

----------
System: Mycobacterium tuberculosis
protocol details: Antitubercular activity against multidrug-resistant Mycobacterium tuberculosis by NCCLS agar dilution method
Type: functional
recorded metric: log10(MIC) (log10 of the value in µM)
Plainly stated, the numbers are log10 of MIC given in µM.

structure notation	readout value
C/C(=N/NC(=S)N(Cc1ccccc1)Cc1ccccc1)c1ccc(O)cc1	0.90

Query :: What reported log10(MIC) corresponds to `O=[N+]([O-])c1ccccc1/C=N\NC(=S)N(Cc1ccccc1)Cc1ccccc1` on Mycobacterium tuberculosis?
Result :: -0.01

Query :: What reported log10(MIC) corresponds to `C/C(=N/NC(=S)N(Cc1ccccc1)Cc1ccccc1)c1ccc(F)cc1` on Mycobacterium tuberculosis?
Result :: 0.60

Query :: What reported log10(MIC) corresponds to `C/C(=N/NC(=S)N(Cc1ccccc1)Cc1ccccc1)c1ccccc1O` on Mycobacterium tuberculosis?
Result :: 0.90

----------
System: Mycobacterium tuberculosis
protocol details: Antitubercular activity against multidrug-resistant Mycobacterium tuberculosis by NCCLS agar dilution method
Assay type: functional
recorded metric: MIC (µM)
Could you give me the number in µM? Just the number is fine.

                     structure_notation                study_target  recorded_metric  readout_value
0  C=CCN(CC=C)C(=S)N/N=C(/C)c1ccc(O)cc1  Mycobacterium tuberculosis              MIC           10.8
1    C=CCN(CC=C)C(=S)N/N=C(/C)c1ccccc1O  Mycobacterium tuberculosis              MIC           10.8

// next entry
Query :: # lookup: MIC of `C=CCN(CC=C)C(=S)NN=C(c1ccccc1)c1ccccc1`
Result :: 2.32

----------
Tested on: Mycobacterium tuberculosis
protocol details: Antitubercular activity against multidrug-resistant Mycobacterium tuberculosis by NCCLS agar dilution method
Assay type: functional
recorded metric: MIC (µM)
Could you give me the number in µM? Just the number is fine.

structure notation	study target	MIC (µM)
C/C(=N/NC(=S)N(Cc1ccccc1)Cc1ccccc1)c1ccccc1	Mycobacterium tuberculosis	4.17
C=CCN(CC=C)C(=S)N/N=C(/C)c1ccc([N+](=O)[O-])cc1	Mycobacterium tuberculosis	9.83
O=[N+]([O-])c1ccc(/C=N\NC(=S)N(Cc2ccccc2)Cc2ccccc2)cc1	Mycobacterium tuberculosis	0.98

// next entry
Query :: # lookup: MIC of `CO[C@H]1/C=C/O[C@@]2(C)Oc3c(C)c(O)c4c(O)c(c(/C=N/N5CCN(C)CC5)c(O)c4c3C2=O)NC(=O)/C(C)=C\C=C\[C@H](C)[C@H](O)[C@@H](C)[C@@H](O)[C@@H](C)[C@H](OC(C)=O)[C@@H]1C`
Result :: 3.79
